targetOfAssay: recombinant homotrimeric HA, A/Japan/305/57 H2N2 (Influenza A virus A/Japan/305/57 (H2N2))
assayRemarks: trimeric HA microarray, transfection set 3
testContext: remark: other sources report otherwise
measurementLabel: Trimeric HA Binding RLU (RLU)
Form entry: value (RLU) — number only.

Worked examples follow.
Inquiry: I'd like to know its Trimeric HA Binding RLU. The binder in question is TCN-529 (5297_H01) (antibody, V domains shown) VH: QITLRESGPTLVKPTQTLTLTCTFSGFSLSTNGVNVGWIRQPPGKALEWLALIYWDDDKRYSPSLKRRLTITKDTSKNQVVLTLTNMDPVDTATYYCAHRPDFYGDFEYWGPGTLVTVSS VL: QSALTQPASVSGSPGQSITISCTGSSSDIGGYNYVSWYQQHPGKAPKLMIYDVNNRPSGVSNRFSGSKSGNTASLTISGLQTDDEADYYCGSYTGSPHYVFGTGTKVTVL
Reply text: 45

Inquiry: I'd like to know its Trimeric HA Binding RLU. The binder in question is TCN-532 (5262_H18) (antibody, V domains shown) VH: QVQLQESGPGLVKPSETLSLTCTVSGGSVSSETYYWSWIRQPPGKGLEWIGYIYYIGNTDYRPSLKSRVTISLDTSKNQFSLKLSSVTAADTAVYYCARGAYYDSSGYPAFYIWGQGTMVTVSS VL: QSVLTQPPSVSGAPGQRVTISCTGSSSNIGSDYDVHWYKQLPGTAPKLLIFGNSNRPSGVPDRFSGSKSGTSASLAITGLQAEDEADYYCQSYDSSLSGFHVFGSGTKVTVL
Reply text: 441

Inquiry: I'd like to know its Trimeric HA Binding RLU. The binder in question is TCN-523 (5248_A17) (antibody, V domains shown) VH: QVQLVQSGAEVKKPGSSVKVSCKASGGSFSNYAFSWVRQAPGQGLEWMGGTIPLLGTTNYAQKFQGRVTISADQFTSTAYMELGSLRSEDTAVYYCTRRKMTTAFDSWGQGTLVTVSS VL: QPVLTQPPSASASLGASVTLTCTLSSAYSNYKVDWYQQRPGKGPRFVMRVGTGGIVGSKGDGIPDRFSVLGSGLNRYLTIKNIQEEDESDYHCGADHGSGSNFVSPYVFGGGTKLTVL
Reply text: 4550

Inquiry: I'd like to know its Trimeric HA Binding RLU. The binder in question is TCN-504 (3251_K17) (antibody, V domains shown) VH: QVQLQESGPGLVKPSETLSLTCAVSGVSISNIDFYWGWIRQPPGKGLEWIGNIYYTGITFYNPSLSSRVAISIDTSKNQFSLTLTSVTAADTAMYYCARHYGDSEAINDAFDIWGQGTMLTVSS VL: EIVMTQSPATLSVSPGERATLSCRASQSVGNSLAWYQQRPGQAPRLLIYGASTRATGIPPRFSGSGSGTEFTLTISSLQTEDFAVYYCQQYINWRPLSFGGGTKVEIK
Reply text: 36000

Inquiry: I'd like to know its Trimeric HA Binding RLU. The binder in question is TCN-531 (5091_H13) (antibody, V domains shown) VH: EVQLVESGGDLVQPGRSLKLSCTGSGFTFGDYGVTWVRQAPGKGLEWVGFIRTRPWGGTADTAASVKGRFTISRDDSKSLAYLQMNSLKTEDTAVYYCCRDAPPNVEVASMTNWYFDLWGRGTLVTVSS VL: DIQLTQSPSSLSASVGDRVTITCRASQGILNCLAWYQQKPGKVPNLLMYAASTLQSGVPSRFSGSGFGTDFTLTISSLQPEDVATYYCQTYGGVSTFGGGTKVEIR
Reply text: 489

Continuing:
Inquiry: I'd like to know its Trimeric HA Binding RLU. The binder in question is TCN-533 (5256_A17) (antibody, V domains shown) VH: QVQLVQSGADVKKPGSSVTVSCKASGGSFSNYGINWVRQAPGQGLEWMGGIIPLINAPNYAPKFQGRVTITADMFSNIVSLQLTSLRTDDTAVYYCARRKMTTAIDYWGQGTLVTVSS VL: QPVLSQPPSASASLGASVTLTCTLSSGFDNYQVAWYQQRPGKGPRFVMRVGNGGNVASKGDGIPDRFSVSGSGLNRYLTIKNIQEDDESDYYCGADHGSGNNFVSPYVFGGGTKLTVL
Reply text: 18600

Inquiry: I'd like to know its Trimeric HA Binding RLU. The binder in question is TCN-530 (5248_H10a) (antibody, V domains shown) VH: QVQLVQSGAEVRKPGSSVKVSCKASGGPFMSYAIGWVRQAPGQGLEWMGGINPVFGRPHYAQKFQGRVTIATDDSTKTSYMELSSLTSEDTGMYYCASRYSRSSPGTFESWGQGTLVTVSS VL: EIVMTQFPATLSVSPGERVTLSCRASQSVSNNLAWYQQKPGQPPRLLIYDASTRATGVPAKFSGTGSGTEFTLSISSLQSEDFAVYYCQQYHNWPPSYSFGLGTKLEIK
Reply text: 5170
